Reference for the values: patent US9045490B2

assay: Oral bioavailability in mice: plasma level by LC-MS; assay type: in vivo; conditions: mouse, 40 mg/kg oral, LC-MS, average of 5 mice, read-out: plasma level one hour after oral gavage
// reported concentration at 1 h for each item listed

{"columns": ["COMPOUND", "concentration at 1 h"],
 "data": [
  ["C/C1=C\\CC[C@@]2(C)O[C@@H]2[C@H]2OC(=O)[C@H](CN(C)C)[C@@H]2CC1", "~2.5 µg/mL"],
  ["C=C1C(=O)O[C@@H]2[C@H]3O[C@]3(C)CC/C=C(\\C)CC[C@@H]12 [Parthenolide]", "~0.2 µM"]
]}

----------
Assay: Oral bioavailability in mice: plasma level by LC-MS
Type: in vivo
Conditions: mouse, 40 mg/kg oral, conversion of the ng/mL value, read-out: plasma level one hour after oral gavage
Description: Preliminary in vivo work was conducted to determine the bioavailability and toxicity of this agent in mice.
MEASURE_NAME: concentration at 1 h

{"columns": ["SUBSTANCE_SMILES", "MEASURE_NAME", "MEASURED_RESULT"],
 "data": [
  ["C/C1=C\\CC[C@@]2(C)O[C@@H]2[C@H]2OC(=O)[C@H](CN(C)C)[C@@H]2CC1", "concentration at 1 h", "8 µM"]
]}
